# System: α7 integrin promoter
# method-description: muscle cell-based assay: α7βgal+/− myoblasts/myotubes, LacZ reporter, β-galactosidase cleavage of FDG
# Parameters: species or system mouse
# assay-setup: Myotubes; compound at 1 uM
Cut-off -0.07 on Results in a α7+/− β-galactosidase assay, Myotubes, 1 uM, inclusive. At or above means fulfilled; below means not fulfilled.

compound	group
Cc1nc(O)nc(O)c1S(=O)(=O)Nc1ccc(F)cc1Cl [drawing 337]	fulfilled

Does Results in a α7+/− β-galactosidase assay, Myotubes, 1 uM meet or surpass -0.07 for CCN(CC(=O)NCc1cccs1)C(=O)COc1ccc(C(N)=O)cc1 [drawing 354] ?
not fulfilled

Test whether the compound Oc1nc(SCc2ccc(Cl)cc2)nc2ccsc12 [drawing 427] records Results in a α7+/− β-galactosidase assay, Myotubes, 1 uM of -0.07 or higher.
fulfilled

Hi, just wondering whether N#Cc1ccc(Sc2nc3ccccc3[nH]2)cc1C#N [drawing 376] shows Results in a α7+/− β-galactosidase assay, Myotubes, 1 uM of -0.07 or higher.
fulfilled

API: above_or_equal(metric=Results in a α7+/− β-galactosidase assay, Myotubes, 1 uM, cutoff=-0.07) for item CCOc1cc(C)c(S(=O)(=O)N2CCCCC2)cc1C [drawing 471]
not fulfilled

Check this compound for Results in a α7+/− β-galactosidase assay, Myotubes, 1 uM at or above -0.07: CCOc1ccccc1NC(=O)c1cccc2c1C(=O)N(C1CCCCC1)C2 [drawing 499]
not fulfilled

Reported Results in a α7+/− β-galactosidase assay, Myotubes, 1 uM at or above -0.07? CN1C(=O)N(CC(=O)N2CCN(S(=O)(=O)c3ccc(Cl)s3)CC2)C(=O)C12CCCCC2 [drawing 493]
fulfilled

Kindly determine if Results in a α7+/− β-galactosidase assay, Myotubes, 1 uM recorded for Cn1c(-c2ccccc2)cc2ccccc21 [drawing 419] is above or exactly -0.07.
not fulfilled

Dear colleague, could you confirm whether N#C/C(=C/c1ccc(N2CCOCC2)o1)C(=O)Nc1ccccc1 [drawing 437] has Results in a α7+/− β-galactosidase assay, Myotubes, 1 uM at or above -0.07?
fulfilled

Would you say COc1ccccc1C(=O)Nc1ccnn1C1CCN(C(=O)c2ccoc2)CC1 [drawing 343] shows Results in a α7+/− β-galactosidase assay, Myotubes, 1 uM at minimum -0.07?
not fulfilled

====

Listed below: Fit Curve Class values for each entry.
# Test system: α7 integrin promoter
# method-description: muscle cell-based assay: α7βgal+/− myoblasts/myotubes, LacZ reporter, β-galactosidase cleavage of FDG
# Design: species or system mouse
# assay-setup: Table 12; key not given
# Description: An α7 integrin null mouse was produced in which exon 1 of the gene encoding the α7 integrin was replaced by the LacZ reporter. […] A primary myoblast cell line (designated α7βgal^+/−) isolated from 10 day old α7^+/− pups were analyzed for the ability of β-galactosidase to report α7 integrin expression. α7βgal^+/− myoblasts were differentiated and subjected to X-gal staining and western analysis (FIGS. 1A and 1B). […]
Simply state the number, no unit and no words.

molecule	endpoint-result
CN(C)C1(C/N=C/c2cc(Cl)cc([N+](=O)[O-])c2O)CCCCC1	2.1
CS(=O)(=O)Cc1cccc(C(=O)NN(c2ccccc2)c2ccccc2)c1	2.1
Fc1ccc(-c2ccnn2-c2ccccc2)cc1	2.1
Cc1ccc(NCc2nnc(SCC(=O)Nc3nnc(C)s3)n2C)cc1	2.1
O=c1oc2c(-c3cccc(F)c3)cc(O)cc2s1	1.1
CC1CCCCN1c1ncnc(N)c1[N+](=O)[O-] (stereo not shown)	2.1

Fill blank: measured Fit Curve Class of the molecule CCOc1ccc2ccccc2c1C1NC(=O)N(C)C(C)=C1C(=O)OCCOC (stereo not shown) is ____.
2.1

May I ask what Fit Curve Class has been recorded for CCCCNc1nnc(SCC(=O)c2c(N)n(CCC)c(=O)[nH]c2=O)s1 ?
2.1

Find the recorded Fit Curve Class belonging to CC(=O)Nc1ccc(N(C(=O)c2cnccn2)C(C(=O)NC2CCCCC2)c2ccc(F)cc2)cc1 (stereo not shown) and report it.
2.1

====

Form field: Fit Curve Class (one value per entry).
# Tested on: α7 integrin promoter
# method-description: muscle cell-based assay: α7βgal+/− myoblasts/myotubes, LacZ reporter, β-galactosidase cleavage of FDG
# Set-up: species or system mouse
# assay-setup: curve class number, key not given
Quick one: just the number, no unit, thanks!

Example compounds with recorded Fit Curve Class:
compound	Fit Curve Class
Cn1ccc(C(=O)Nc2cccnc2Cl)n1	2.2
CNC(=O)/C(=C\c1cccc(Oc2ccccc2)c1)NC(=O)c1ccccc1	2.1
c1ccc(CN2CCCC3(CCCN(Cc4nc(CC5CC5)no4)C3)C2)cc1 (stereo not shown)	2.1
CN(C)CCNc1ncnc2sc(-c3ccccc3)cc12	2.2
COc1ccccc1OCC(=O)N/N=C1/C=C(C)CC1	2.1
COc1ccc(-c2cc(COc3ccccc3)on2)cc1	2.1
C/C(=N\NC(=O)c1cc(C)oc1C)c1ccc2ccccc2c1	2.2
CCc1c(C2(O)CCCCC2)[nH]c2ncccc12	2.1
Cl.O=C(CN1CCOCC1)NCc1cc([N+](=O)[O-])ccc1O	2.1

Please turn your attention to the following entry.
Could you share which Fit Curve Class value was measured for Cc1cc(C(=O)Nc2cccc3ccccc23)c(C)o1 ?
2.1

====

# Tested on: α7 integrin promoter
# method-description: muscle cell-based assay: α7βgal+/− myoblasts/myotubes, LacZ reporter, β-galactosidase cleavage of FDG
# Design: species or system mouse
# assay-setup: Myotubes; compound at 5 uM
Quick reference: Results in a α7+/− β-galactosidase assay, Myotubes, 5 uM of the listed items.
Would you mind answering with just the numeric figure?

Consider the reported Results in a α7+/− β-galactosidase assay, Myotubes, 5 uM for these compounds:
compound	endpoint-result
Cc1cc(C)cc(OCC(=O)N/N=C/c2ccccn2)c1 [drawing 339]	0.05474
CC(=O)Nc1ccc(-n2c(C)nc(=O)c(-c3ccccc3)c2C)cc1 [drawing 460]	−0.2443

Can you share its Results in a α7+/− β-galactosidase assay, Myotubes, 5 uM? I mean this compound: Cn1c(-c2ccccc2)cc2ccccc21 [drawing 419]
0.03646

Need Results in a α7+/− β-galactosidase assay, Myotubes, 5 uM of COc1ccc(/N=N/c2ccc(N)nc2N)cc1 [drawing 368] , thanks.
−0.00041

If you can, please state the reported Results in a α7+/− β-galactosidase assay, Myotubes, 5 uM value of N=C(NOC(=O)c1cccc(C(F)(F)F)c1)c1cnccn1 [drawing 369] .
−0.08801

Can you look up the measured Results in a α7+/− β-galactosidase assay, Myotubes, 5 uM of CCCCNc1nnc(Cc2ccc(Cl)cc2)c(O)n1 [drawing 335] for me?
−0.1354

# input compound: CC(C)CN(C(=O)c1cccc(Cl)c1)c1c(N)n(Cc2ccccc2)c(=O)[nH]c1=O [drawing 336] ; wanted: its Results in a α7+/− β-galactosidase assay, Myotubes, 5 uM
−0.02107

Requested read-out: Results in a α7+/− β-galactosidase assay, Myotubes, 5 uM. Entry: CC1CCN(C(CNS(=O)(=O)c2ccccc2)c2ccccc2)CC1 (centres unmarked) [drawing 404]
−0.1201

====

Below, each entry is listed alongside its reported Fit Zero Activity [%].
# Test system: α7 integrin promoter
# method-description: muscle cell-based assay: α7βgal+/− myoblasts/myotubes, LacZ reporter, β-galactosidase cleavage of FDG
# Set-up: species or system mouse
# assay-setup: curve fit, activity at zero concentration
Response body: numeric value in %, unit text excluded.

compound	Fit Zero Activity [%] / %
CC(C(=O)Nc1ccc(C#N)cc1)N(C)CC(=O)Nc1cccc(F)c1 (stereo not shown)	−45.5302
Cc1ccc(NC(=O)COc2ccccc2CNC(C)(C)CC(C)(C)C)cc1	8.7591
CC1(C)Cc2c(cnn2-c2cccc(F)c2)C(NC(=O)CCc2cnccn2)C1 (stereo not shown)	−46.353
COCc1c(C(=O)N/N=C(\C)c2ccc(OCc3ccccc3)cc2)nnn1-c1nonc1N	4.6719
Cc1ccc(-c2nc(C)sc2CC(=O)OCC(=O)Nc2c(F)cccc2F)cc1	11.9156

Fit Zero Activity [%] for C=CCc1c(C)nc(-c2ccccc2)nc1N/N=C/c1ccccc1 ?
−1.0122

What value of Fit Zero Activity [%] has been recorded for this entry: Cc1cc(-c2ccccc2)n2nc(N)nc2n1
−18.9102

GET /values?readout=Fit Zero Activity [%]&item= CC(=O)Nc1nonc1-c1nc2ccccc2n1CCC(C)C
−7.5793

Name the recorded Fit Zero Activity [%] for CCOC(=O)/C(C(=O)c1ccccc1)=C(\N)NCCO .
9.8519

For the compound O=[N+]([O-])c1cccc(S(=O)(=O)N2CCN(S(=O)(=O)N3CCOCC3)CC2)c1 , what Fit Zero Activity [%] is on record?
−0.5234

GET /values?readout=Fit Zero Activity [%]&item= O=Cc1cnc(N2CCCCC2)s1
−19.3188

Request the reported Fit Zero Activity [%] associated with C=CCn1c(COc2ccc(Cl)cc2)nnc1SCc1ccc(C#N)cc1
8.1688

If you can, please state the reported Fit Zero Activity [%] value of CC(C)N(CCO)C(=O)CCc1nnc(CCCc2ccccc2)o1 .
0.1862

Look up Fit Zero Activity [%] for this compound: COc1ccc(CCNC(=O)Cn2nnc(C(=O)Nc3ccc(Br)cc3)c2N)cc1OC
−28.7719
